molecular target: human liver carboxylesterase (hCE1) (Homo sapiens); assay: biochemical; type: biochemical; details: o-NPA as substrate; Table 6; read-out: hCE1 Ki ± SE
Sequence (P23141 18-567): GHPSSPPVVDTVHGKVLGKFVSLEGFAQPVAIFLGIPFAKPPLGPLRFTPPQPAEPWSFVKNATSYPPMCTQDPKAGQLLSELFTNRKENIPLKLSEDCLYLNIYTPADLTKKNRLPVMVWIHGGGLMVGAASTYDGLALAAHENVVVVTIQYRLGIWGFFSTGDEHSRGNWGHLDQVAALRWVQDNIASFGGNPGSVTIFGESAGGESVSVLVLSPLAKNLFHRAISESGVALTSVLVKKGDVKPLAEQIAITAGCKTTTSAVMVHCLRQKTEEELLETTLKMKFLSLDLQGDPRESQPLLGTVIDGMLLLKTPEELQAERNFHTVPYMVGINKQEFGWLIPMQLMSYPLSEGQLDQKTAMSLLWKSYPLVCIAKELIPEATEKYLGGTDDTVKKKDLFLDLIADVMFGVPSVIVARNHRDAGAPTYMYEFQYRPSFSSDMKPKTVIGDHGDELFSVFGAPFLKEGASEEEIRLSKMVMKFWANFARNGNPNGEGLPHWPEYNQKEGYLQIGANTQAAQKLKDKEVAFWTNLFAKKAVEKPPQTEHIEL
Each entry below carries its recorded log10(Ki).
MEASURED_ENDPOINT: log10(Ki) (log10 of the value in nM)

INSERT INTO assay_data (compound, numeric_value) VALUES
  ('O=C(C(=O)c1cccc([N+](=O)[O-])c1)c1cccc([N+](=O)[O-])c1 [Compound 34, 1,2-bis(3-nitrophenyl)ethane-1,2-dione]', 4.26),
  ('O=C(O)c1ccc(C(=O)C(=O)c2ccccc2)cc1 [Compound 1, 4-[oxo(phenyl)acetyl]benzoic acid]', 2.72),
  ('Cc1ccc(C(=O)C(=O)c2ccc(Cl)cc2)cc1 [Compound 22]', 2.20),
  ('O=C(C(=O)c1ccc(CBr)cc1)c1ccccc1 [Compound 3]', 1.89),
  ('COc1cccc(C(=O)C(=O)c2cccc(OC)c2)c1 [Compound 33, 1,2-bis(3-methoxyphenyl)ethane-1,2-dione]', 3.19),
  ('O=C(C(=O)c1ccc([N+](=O)[O-])cc1)c1ccccc1 [Compound 14]', 2.33),
  ('Cc1ccc(C(=O)C(=O)c2ccccc2)cc1 [Compound 32]', 2.10),
  ('COc1ccc(C(=O)C(=O)c2ccccc2)cc1 [Compound 6]', 2.24);
